Target: Protein farnesyltransferase subunit beta/geranylgeranyltransferase type-1 subunit alpha (Mus musculus, UniProt Q61239+Q8K2I1)
Assay: Inhibition of H-Ras transformed NIH-3T3-cell proliferation
Reported pEC50 is given for each of the following compounds.
Please report pEC50 as the negative decimal logarithm of the molar concentration, giving only the number.

Study these solved cases before continuing.
CC(=O)c1ccc(-c2cc(C#N)ccc2COCc2cncn2Cc2ccc(C#N)cc2)cc1 = 7.11
N#Cc1ccc(Cn2cncc2COc2ccc(C#N)c(-c3cccc4ccccc34)c2)cc1 = 8.92
N#Cc1ccc(COCc2cncn2Cc2ccc(C#N)nc2)c(-c2ccc3c(c2)OCO3)c1 = 7.80
N#Cc1ccc(COCc2cncn2Cc2ccc(C#N)cc2-c2cccc3ccccc23)cc1 = 6.34
CCOc1cccc(-c2cc(C#N)ccc2COCc2cncn2Cc2ccc(C#N)nc2)c1 = 7.77

Q. Param item = N#Cc1ccc(OCc2cncn2Cc2ccc(C#N)c(-c3cccc4ccccc34)c2)nc1 ; retrieve measured pEC50.
A. 7.22

Q. Param item = CCOc1cccc(-c2cc(C#N)ccc2COCc2cncn2Cc2ccc(Cl)cc2)c1 ; retrieve measured pEC50.
A. 7.47

* * *

Reported EC50 is given for each of the following molecules.
Target: Protein farnesyltransferase subunit beta/geranylgeranyltransferase type-1 subunit alpha (Mus musculus, UniProt Q61239+Q8K2I1)
Assay: Inhibition of H-Ras transformed NIH-3T3-cell proliferation
Field format: number, assumed nM, no unit text.

Study these solved cases before continuing.
N#Cc1ccc(Cn2cncc2COCc2ccc(C#N)cc2-c2ccc3c(c2)OCO3)nc1 = 29
N#Cc1ccc(Cn2cncc2COCc2ccc(C#N)cc2-c2ccc(C(F)(F)F)cc2)cc1 = 1.6

Q. Param item = N#Cc1ccc(Cn2cncc2COCc2ccc(C#N)cc2-c2cccc(Cl)c2)nc1 ; retrieve measured EC50.
A. 155

Provenance of the data: BindingDB's records for doi:10.1016/j.bmcl.2004.08.011
